Assay: Toxicity against rat WB-F344 cells assessed as cell viability at 50 ppm after 1 hr using trypan blue staining by LDH assay
Type: cell-based
Settings: read-out: Activity
Reported property: viability at 1 h, 50 ppm (%)
Respond with the bare value in %.

Field request: viability at 1 h, 50 ppm | item: C[C@@H]1[C@H](O)[C@@H](C)/C=C/C=C/C=C/C=C/C=C/C=C/C=C/[C@H](O[C@@H]2O[C@H](C)[C@@H](O)[C@H](N)[C@@H]2O)C[C@@H]2O[C@](O)(C[C@@H](O)C[C@@H](O)[C@H](O)CC[C@@H](O)C[C@@H](O)CC(=O)O[C@H]1C)C[C@H](O)[C@H]2C(=O)O
0

These entries and their values trace back to ChEMBL document CHEMBL1147296.
